Below, each entry is listed alongside its reported pIC50.
Assay: Inhibition of Bacillus subtilis Sfp-PPTase using rhodamine-CoA/BHQ-2-YbbR as substrate preincubated for 15 mins followed by substrate addition by HTS assay
// scale note: pIC50 = -log10(conc_M); give the bare number

Consider the reported pIC50 for these compounds:
# Smiles Code, pIC50
records = [
    ("Cc1cc(C)nc(NC(=S)N2CCN(c3cc(C(F)(F)F)cc(C(F)(F)F)c3)CC2)c1", 6.29),
    ("Cc1ccnc(NC(=S)N2CCN(c3ccc(C(F)(F)F)cc3)CC2)c1", 6.00),
    ("Cc1cc(C)nc(NC(=S)N2CCN(c3cccc(C(F)(F)F)c3)CC2)c1", 6.29),
]

**Q:** Consider the compound Cc1ccnc(CC(=S)N2CCN(c3cccc(C(F)(F)F)c3)CC2)c1 . State its measured pIC50.
**A:** 5.24
